Quick reference: MFI at 33.3 nM of the listed items.
Measured Target: CD28, endogenously expressed on Jurkat/IL2 reporter cells (human) (UniProt P10747)
Measurement Notes: flow cytometry on Jurkat/IL2 reporter cells (endogenous CD28), 33.3 nM Fc fusion, PE anti-human Fc
Write it as a number; the unit MFI goes unstated.

>  <Binder>
variant CD80 IgV-Fc E35D/D46E/M47I (Fc fusion) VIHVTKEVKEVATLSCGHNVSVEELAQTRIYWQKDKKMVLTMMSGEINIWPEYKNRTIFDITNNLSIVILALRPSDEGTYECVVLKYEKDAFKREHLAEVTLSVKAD

>  <Assay Endpoint>
MFI at 33.3 nM

>  <Numeric Readout>
1000

$$$$

Query: // lookup MFI at 33.3 nM for variant CD80 IgV-Fc D46V/M47I/A71G (Fc fusion) VIHVTKEVKEVATLSCGHNVSVEELAQTRIYWQKEKKMVLTMMSGVINIWPEYKNRTIFDITNNLSIVILGLRPSDEGTYECVVLKYEKDAFKREHLAEVTLSVKAD
Response: 1320

Query: Can you check variant CD80 IgV-Fc E35D/D46E (Fc fusion) VIHVTKEVKEVATLSCGHNVSVEELAQTRIYWQKDKKMVLTMMSGEMNIWPEYKNRTIFDITNNLSIVILALRPSDEGTYECVVLKYEKDAFKREHLAEVTLSVKAD next?
Response: 779
